// data source = PubChem BioAssay AID624040

Target: Muscarinic acetylcholine receptor M5 (Homo sapiens)
Assay: human M5 muscarinic receptor antagonists, primary screen, CHO cells, Fluo-8 calcium fluorescence (AID 624040)
Settings: CHO-hM5 cells, ACh EC80, at 3 µM
In all, about 360,000 compounds went through this assay and about 2,100 (0.58%) were called active.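 How the source made its calls: active means inhibition above a per-plate cutoff, the mean of that plate's test compounds plus 3 SD (cut at about 27% in these data); inactive means the rest.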 The list comes from a sample in which actives are over-represented; it also holds close analogues and randomly drawn compounds.
Possible outcomes: active, inactive

| molecule | assayed.target | label |
| --- | --- | --- |
| S=C(NCCCc1ccccc1)Nc1ccc(Br)cc1 | Muscarinic acetylcholine receptor M5 (Homo sapiens) | active |
| COc1ccc(OCCNS(=O)(=O)Cc2ccccc2)cc1 | Muscarinic acetylcholine receptor M5 (Homo sapiens) | inactive |
| Cc1ccc(-c2cnc(C(O)c3cccc(C)c3C)[nH]2)cc1 (centres undefined) | Muscarinic acetylcholine receptor M5 (Homo sapiens) | inactive |
| O=C(COc1ncnc2ccccc12)NC(=O)NCc1ccccc1 | Muscarinic acetylcholine receptor M5 (Homo sapiens) | inactive |
| COc1cccc(CNC(=O)CCC2CCCN(C(=O)c3ccc(F)c(Cl)c3)C2)c1 (centres undefined) | Muscarinic acetylcholine receptor M5 (Homo sapiens) | inactive |
| OC[C@@H]1CN(C2CCCC2)C[C@H](n2cnc3c(NC4CCC4)ncnc32)O1 | Muscarinic acetylcholine receptor M5 (Homo sapiens) | inactive |
| COc1ccc(C(=O)Oc2ccc(-c3nnco3)cc2)cc1S(=O)(=O)N1CCOCC1 | Muscarinic acetylcholine receptor M5 (Homo sapiens) | inactive |
| Cc1cc(C(=O)N2CCN(c3ccccn3)CC2)c(C)o1 | Muscarinic acetylcholine receptor M5 (Homo sapiens) | inactive |
| COc1cccc(CNC(=O)CCC2CCCN(C(=O)c3cc(C)[nH]n3)C2)c1 (centres undefined) | Muscarinic acetylcholine receptor M5 (Homo sapiens) | active |
| Cc1cc(Br)ccc1NC(=O)c1cnc(N2CCN(c3ccccn3)CC2)c2ccccc12 | Muscarinic acetylcholine receptor M5 (Homo sapiens) | active |
| O=C(Oc1ccc(-c2nnco2)cc1)c1ccc(F)c(S(=O)(=O)N2CCOCC2)c1 | Muscarinic acetylcholine receptor M5 (Homo sapiens) | active |
| Cc1ccc(C(=O)NCC(=O)OCC(=O)NC2CCCCCCC2)cc1 | Muscarinic acetylcholine receptor M5 (Homo sapiens) | inactive |
| COCCNC(=O)C1(C)CCCN(Cc2cccc(F)c2)C1 (centres undefined) | Muscarinic acetylcholine receptor M5 (Homo sapiens) | inactive |
| c1cc(-n2cnnn2)ccc1NC1=NCCC1 | Muscarinic acetylcholine receptor M5 (Homo sapiens) | inactive |
| CCN(CC)S(=O)(=O)c1ccc2nc(CSc3nnnn3-c3ccc(O)cc3)[nH]c2c1 | Muscarinic acetylcholine receptor M5 (Homo sapiens) | inactive |
| COc1ccc(C(c2nnnn2C2CCCCC2)N2CCN(c3ccccc3F)CC2)cc1 (centres undefined) | Muscarinic acetylcholine receptor M5 (Homo sapiens) | inactive |
| O=C(NNS(=O)(=O)c1ccc(Cl)cc1)C1CCN(Cc2ccccc2)CC1 | Muscarinic acetylcholine receptor M5 (Homo sapiens) | active |
| CCCCn1nnnc1C(c1ccccc1)N1CCN(c2ccccc2OC)CC1 (centres undefined) | Muscarinic acetylcholine receptor M5 (Homo sapiens) | inactive |
| COc1ccc(S(=O)(=O)NCCCCOc2ccc(Cl)cc2)cc1 | Muscarinic acetylcholine receptor M5 (Homo sapiens) | active |
| N#CC1(Nc2ccc3c4c(cccc24)CC3)CCCCC1 | Muscarinic acetylcholine receptor M5 (Homo sapiens) | active |
| Cc1ccc(S(=O)(=O)NCCC(=O)NC2CCN(Cc3ccccc3)CC2)cc1 | Muscarinic acetylcholine receptor M5 (Homo sapiens) | inactive |
| NC(=O)C1CCN(C(=O)c2ccc(F)c(S(=O)(=O)N3CCOCC3)c2)CC1 | Muscarinic acetylcholine receptor M5 (Homo sapiens) | inactive |
| COc1ccc(C(=O)Cn2nnc(-c3ccc(N4CCOCC4)cc3)n2)cc1OC | Muscarinic acetylcholine receptor M5 (Homo sapiens) | inactive |
| O=C1NC[C@@H](Cc2ccc(O)cc2)N(CCc2cccc(F)c2)C1=O | Muscarinic acetylcholine receptor M5 (Homo sapiens) | inactive |
| CC(=O)N1CC(C)c2scc(C)[n+]2-c2ccccc21 (centres undefined) | Muscarinic acetylcholine receptor M5 (Homo sapiens) | inactive |
| COc1ccc(NC(=O)CC(NC(C)c2ccccc2)C(=O)O)cc1 (centres undefined) | Muscarinic acetylcholine receptor M5 (Homo sapiens) | inactive |
| CN(C)CC/C=C1\c2ccccc2CSc2ccccc21 | Muscarinic acetylcholine receptor M5 (Homo sapiens) | active |
| COc1ccc(OCCCCN2CCC(C)CC2)cc1 | Muscarinic acetylcholine receptor M5 (Homo sapiens) | inactive |
| O=C(NCc1ccccc1CN1CCCC1)C1CCN(S(=O)(=O)c2ccc(Cl)cc2)CC1 | Muscarinic acetylcholine receptor M5 (Homo sapiens) | inactive |
| CN/C(=C\[N+](=O)[O-])NCCSCc1csc(CN(C)C)n1 | Muscarinic acetylcholine receptor M5 (Homo sapiens) | inactive |
| CCN1CCN(C(=O)Cn2nc(C)n3c(cc4c(OC)cccc43)c2=O)CC1 | Muscarinic acetylcholine receptor M5 (Homo sapiens) | inactive |
| CC1CC(NC(=O)/C(C#N)=C/c2ccc[nH]2)CC(C)(C)C1 (centres undefined) | Muscarinic acetylcholine receptor M5 (Homo sapiens) | inactive |
| Cc1cccc2cc3c(N)c(C(=O)N4CCCc5ccccc54)sc3nc12 | Muscarinic acetylcholine receptor M5 (Homo sapiens) | active |
| CCO[C@H]1OC(C(=O)O)=C[C@@H](C2CCCCC2)[C@@H]1CCCO | Muscarinic acetylcholine receptor M5 (Homo sapiens) | inactive |
| COC(=O)c1c(-c2cccs2)csc1NC(=O)CSc1ncnc2sc(C)c(C)c12 | Muscarinic acetylcholine receptor M5 (Homo sapiens) | inactive |
| Nc1c(C(=O)c2cccs2)sc2nsc(SCCN3CCCCC3)c12 | Muscarinic acetylcholine receptor M5 (Homo sapiens) | active |
| COc1ccc(CNc2ncnc3ccccc23)cc1 | Muscarinic acetylcholine receptor M5 (Homo sapiens) | active |
| CCCn1nc(C(=O)N2CCCc3ccccc32)c2ccccc2c1=O | Muscarinic acetylcholine receptor M5 (Homo sapiens) | inactive |
| CN1CCC(=NNC(=O)c2ccc(N(Cc3ccc(Cl)cc3)S(C)(=O)=O)cc2)CC1 | Muscarinic acetylcholine receptor M5 (Homo sapiens) | inactive |
| CN(C)Cc1ccccc1C1(O)c2ccccc2CSc2ccccc21 (centres undefined) | Muscarinic acetylcholine receptor M5 (Homo sapiens) | inactive |
| O=C(CNCCO)NC12CC3CC(CC(C3)C1)C2 | Muscarinic acetylcholine receptor M5 (Homo sapiens) | inactive |
| S=C(Nc1ccc(Br)cc1)NC1CCN(Cc2ccccc2)CC1 | Muscarinic acetylcholine receptor M5 (Homo sapiens) | inactive |
| Nc1nonc1-n1nnc(C(=O)N/N=C/c2ccc(Cl)cc2)c1-c1ccc2c(c1)OCO2 | Muscarinic acetylcholine receptor M5 (Homo sapiens) | inactive |
| Cc1cc(Br)ccc1NC(=O)c1sc2ncn(CC(=O)N3CCN(c4ccccn4)CC3)c(=O)c2c1C | Muscarinic acetylcholine receptor M5 (Homo sapiens) | inactive |
